Entries and their measured growth inhibition follow.
# System: DIPGX7 (H3.3 K27M diffuse intrinsic pontine glioma line)
# procedure_text: growth inhibition (% activity, log2 RLU normalised to DMSO / staurosporine); higher = more growth inhibition
# condition_details: 33 µM
Write down the numeric answer in % and omit the unit.

Worked cases, answers included:
- molecule: "CCCCNC(=O)NS(=O)(=O)c1ccc(C)cc1"
  readout_units: "%"
  growth inhibition: -0.647
- molecule: "CCCCNc1ccc(C(=O)OCCN(C)C)cc1"
  readout_units: "%"
  growth inhibition: 0.627
- molecule: "Cn1c(CNc2ccc(C(=N)N)cc2)nc2cc(C(=O)N(CCC(=O)O)c3ccccn3)ccc21"
  readout_units: "%"
  growth inhibition: 1.05
- molecule: "O=C1c2c(O)ccc(O)c2C(=O)c2c(NCCNCCO)ccc(NCCNCCO)c21"
  readout_units: "%"
  growth inhibition: 59.1
- molecule: "COc1cc([C@@H]2c3cc4c(cc3[C@@H](O[C@@H]3O[C@@H]5CO[C@@H](C)O[C@H]5[C@H](O)[C@H]3O)[C@H]3COC(=O)[C@H]23)OCO4)cc(OC)c1O"
  readout_units: "%"
  growth inhibition: 8.84

Exam item: Give the reported growth inhibition for C[C@H](CS)C(=O)N1CCC[C@H]1C(=O)O (system: DIPGX7).
Marked response: 1.27

Exam item: Notebook: pull reported growth inhibition for DIPGX7, entry CO[C@H]1C[C@@H]2CC[C@@H](C)[C@@](O)(O2)C(=O)C(=O)N2CCCC[C@H]2C(=O)O[C@H]([C@H](C)C[C@@H]2CC[C@@H](OC(=O)C(C)(CO)CO)[C@H](OC)C2)CC(=O)[C@H](C)/C=C(\C)[C@@H](O)[C@@H](OC)C(=O)[C@H](C)C[C@H](C)/C=C/C=C/C=C/1C
Marked response: 4.97
